These measurements were taken from ChEMBL document CHEMBL5360520.

target: Prostaglandin G/H synthase 1 (Ovis aries, UniProt P05979); assay: Covalent inhibition of recombinant ovine COX-1 using arachidonic acid as substrate assessed as reduction in PGE2 production preincubated with compound for 5 hrs followed by substrate addition and measured after 10 mins by LC-MS/MS analysis
Sequence (P05979 whole entry): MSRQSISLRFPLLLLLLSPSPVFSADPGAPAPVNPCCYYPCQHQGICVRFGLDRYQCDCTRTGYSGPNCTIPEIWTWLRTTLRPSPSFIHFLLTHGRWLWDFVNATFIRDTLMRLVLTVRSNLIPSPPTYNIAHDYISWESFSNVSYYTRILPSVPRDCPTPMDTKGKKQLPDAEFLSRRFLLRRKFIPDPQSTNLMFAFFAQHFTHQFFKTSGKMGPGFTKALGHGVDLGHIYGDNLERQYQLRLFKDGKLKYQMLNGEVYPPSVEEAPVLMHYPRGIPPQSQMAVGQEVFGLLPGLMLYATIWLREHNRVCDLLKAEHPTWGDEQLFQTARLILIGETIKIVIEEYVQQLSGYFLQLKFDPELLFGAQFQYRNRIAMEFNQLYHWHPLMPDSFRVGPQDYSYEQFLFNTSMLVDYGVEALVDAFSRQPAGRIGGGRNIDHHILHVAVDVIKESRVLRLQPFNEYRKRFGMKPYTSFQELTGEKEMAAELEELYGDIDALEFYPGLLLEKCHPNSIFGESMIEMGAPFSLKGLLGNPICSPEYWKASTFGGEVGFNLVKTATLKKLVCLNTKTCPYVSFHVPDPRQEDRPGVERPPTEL
measure: pIC50
One number for each entry, as −log10 of the molar value.

Entry CCCCCCNC(=O)c1ccccc1SC(C)=O has what pIC50?
5.00

----------
biological target: Prostaglandin G/H synthase 1 (Ovis aries, UniProt P05979); test: Non-covalent binding affinity to recombinant ovine COX1 using arachidonic acid as substrate assessed as binding constant preincubated with compound for 10 to 40 mins followed by substrate addition and measured after 10 mins by LC-MS/MS analysis
Consider the following compounds; for each one, report its pKi.
Numbers only, as −log10 of the molar value.

// below: answered compounds
INSERT INTO assay_data (query_smiles, measure, numeric_value) VALUES
  ('CCCCC#CCNC(=O)c1ccccc1SC(C)=O', 'pKi', 5.05),
  ('C#CCNC(=O)c1ccccc1SC(C)=O', 'pKi', 4.82);

Switching to the query record.
Entry CCCCCCNC(=O)c1ccccc1SC(C)=O has what pKi?
4.47
